Settings: 298.15 K; 101.33 kPa; Liquid
Numbers after ± are expanded uncertainties.
Property: mass density
Give me the value, and tack the unit on after it.

Recorded mass density, per entry:
INSERT INTO measurements (compound, measurement) VALUES
  ('CCO', '785.18 ± 0.5 kg/m3'),
  ('C[N+](=O)[O-]', '1131.17 ± 1.6 kg/m3'),
  ('CCCCn1cc[n+](C)c1.COS(=O)(=O)[O-] [1-butyl-3-methylimidazolium methyl sulfate]', '1207.75 ± 1.2 kg/m3'),
  ('ClCCCCl', '1179.1 ± 0.89 kg/m3'),
  ('CCOCCOCCO', '983.68 ± 0.43 kg/m3');

Request: Determine from records and report mass density for CCCCn1cc[n+](C)c1.F[B-](F)(F)F [1-butyl-3-methylimidazolium tetrafluoroborate]
Result: 1201.41 ± 1.2 kg/m3
